Data origin: paper PMC8470988

target: UGT93Y1 (Camellia sinensis, UniProt A0A4S4F2U3); construct: UGT 467 aa, fusion about 80 kDa; His29, Asp134, PSPG box Trp342-Gln385, TSS 413-415; test: UDP Glo glycosyltransferase assay; conditions: UDP-glucose as donor; 30 °C; 0-1000 µM menthol; kinetic fit with substrate inhibition, two-site sequential model with identical dissociation constants
Sequence (A0A4S4F2U3 entry or part of it): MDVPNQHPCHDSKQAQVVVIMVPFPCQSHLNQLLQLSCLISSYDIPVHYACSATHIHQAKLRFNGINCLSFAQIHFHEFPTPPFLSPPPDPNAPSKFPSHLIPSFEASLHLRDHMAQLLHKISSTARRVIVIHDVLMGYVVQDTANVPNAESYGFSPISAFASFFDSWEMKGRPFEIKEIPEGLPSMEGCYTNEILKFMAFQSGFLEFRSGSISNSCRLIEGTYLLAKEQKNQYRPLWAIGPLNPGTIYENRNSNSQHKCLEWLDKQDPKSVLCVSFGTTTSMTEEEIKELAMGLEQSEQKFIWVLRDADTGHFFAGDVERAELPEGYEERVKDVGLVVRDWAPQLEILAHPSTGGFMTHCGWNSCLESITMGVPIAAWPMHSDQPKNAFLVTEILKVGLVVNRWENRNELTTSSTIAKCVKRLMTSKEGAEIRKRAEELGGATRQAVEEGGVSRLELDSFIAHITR
pKd: −log10 of the molar value.

[
  {
    "compound": "CC1CCC(C(C)C)C(O)C1 (racemic) [(±)-menthol]",
    "pKd": 3.34
  }
]
